molecular target: ALG3; assay: pooled miR-30 sensor sort-seq; sequence = guide strand; conditions: shRNA; also: reference of the scale not given here
// n strictly below -0.8 in sensor-assay potency score (higher = more potent); y otherwise

# sequenceCode, assaySystem, assignedClass
records = [
    ("TATGTGTTCCAGGAGAGCTCGA", "ALG3", "y"),
    ("TGGGTCATTGAAGAGCCGCAGC", "ALG3", "n"),
    ("ATGTACACGAAACCAGCTGGGT", "ALG3", "n"),
]

Let us examine a further case.
Does the reported sensor-assay potency score (higher = more potent) for TAAAGATGTACACGAAACCAGC fall at or above the -0.8 mark?
n

Origin of the recorded values: the OligoGym collection
